inhibition at 0.1 µM: recorded values
- measuredOn: ERβ ligand binding domain (Homo sapiens, UniProt Q92731)
- Sequence (Q92731 whole entry, looked up, the tested form may be a part): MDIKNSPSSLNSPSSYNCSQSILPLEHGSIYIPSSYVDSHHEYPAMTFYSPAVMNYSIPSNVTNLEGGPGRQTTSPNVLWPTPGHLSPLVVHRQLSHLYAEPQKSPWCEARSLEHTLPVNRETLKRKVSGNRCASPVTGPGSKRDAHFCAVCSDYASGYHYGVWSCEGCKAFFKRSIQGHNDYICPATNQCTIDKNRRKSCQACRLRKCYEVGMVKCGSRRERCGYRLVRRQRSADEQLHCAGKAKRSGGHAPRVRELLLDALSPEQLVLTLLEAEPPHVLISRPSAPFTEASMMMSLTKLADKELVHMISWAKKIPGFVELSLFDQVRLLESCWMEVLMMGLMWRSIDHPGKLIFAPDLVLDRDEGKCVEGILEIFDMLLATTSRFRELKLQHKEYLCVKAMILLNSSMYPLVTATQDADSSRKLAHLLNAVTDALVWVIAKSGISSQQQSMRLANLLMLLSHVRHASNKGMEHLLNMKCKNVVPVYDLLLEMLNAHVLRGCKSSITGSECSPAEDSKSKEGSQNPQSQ
- methodDescription: Competitive [3H]-estradiol binding assay, ER-β (Example 21)
- reportedConditions: read-out: Percent Inhibition of [3H]-Estradiol Binding to ER-β
testReadout: inhibition at 0.1 µM (%)

molecule="O=c1c2ccc(O)cc2c(I)cn1-c1ccc(O)cc1 [12h]" measuredon="ERβ ligand binding domain (Homo sapiens, UniProt Q92731)" testreadout="inhibition at 0.1 µM" unitstext=% numericvalue=40.5
molecule="O=c1c2ccc(O)cc2c(Br)cn1-c1ccc(O)c(F)c1 [12d]" measuredon="ERβ ligand binding domain (Homo sapiens, UniProt Q92731)" testreadout="inhibition at 0.1 µM" unitstext=% numericvalue=38.7
molecule="O=c1c2ccc(O)cc2c(Cl)cn1-c1ccc(O)cc1 [12f]" measuredon="ERβ ligand binding domain (Homo sapiens, UniProt Q92731)" testreadout="inhibition at 0.1 µM" unitstext=% numericvalue=47.5
molecule="Oc1ccc(-n2ccc3cc(O)cc(O)c3c2=S)cc1 [12p]" measuredon="ERβ ligand binding domain (Homo sapiens, UniProt Q92731)" testreadout="inhibition at 0.1 µM" unitstext=% numericvalue=80.7
molecule="O=c1c2c(O)cc(O)cc2c(Br)cn1-c1ccc(O)c(F)c1 [12z]" measuredon="ERβ ligand binding domain (Homo sapiens, UniProt Q92731)" testreadout="inhibition at 0.1 µM" unitstext=% numericvalue=95.3
molecule="O=c1c2c(O)cc(O)cc2c(Br)cn1-c1ccc(O)cc1 [12u]" measuredon="ERβ ligand binding domain (Homo sapiens, UniProt Q92731)" testreadout="inhibition at 0.1 µM" unitstext=% numericvalue=96.7
molecule="O=c1c2ccc(O)cc2c(I)cn1-c1ccc(O)c(F)c1 [12n]" measuredon="ERβ ligand binding domain (Homo sapiens, UniProt Q92731)" testreadout="inhibition at 0.1 µM" unitstext=% numericvalue=8.7
molecule="O=c1c2c(O)cc(O)cc2ccn1-c1ccc(O)c(F)c1 [12s]" measuredon="ERβ ligand binding domain (Homo sapiens, UniProt Q92731)" testreadout="inhibition at 0.1 µM" unitstext=% numericvalue=52.8

Where do these numbers come from? They come from patent US9604931B2.
